I'd appreciate it if you could supply CC50 at 72 h values for the items below.
Assay: Cytotoxicity in A549 cells
Details: human

## Input I am curious: what CC50 at 72 h value has been reported for O=c1cc(-c2ccc(O)c(O)c2)oc2cc(O)cc(O)c12 [Compound 15, luteolin] ?
## Output > 100 µM

## Input I am curious: what CC50 at 72 h value has been reported for O=C1CC(c2ccc(O)c(O)c2)Oc2cc(O)cc(O)c21 (racemic) [Compound 11, (±)-eriodictyol] ?
## Output > 100 µM

###

Assay: in vitro
Conditions: dog
REPORTED PROPERTY: CC50 at 72 h (µM)
Return type: number; implicit unit µM.

## Input I am curious: what CC50 at 72 h value has been reported for COc1cc(C2CC(=O)c3c(O)cc(O)cc3O2)cc(CC=C(C)C)c1O (stereo not drawn) ?
## Output 64.9

## Input I am curious: what CC50 at 72 h value has been reported for COc1c(CC=C(C)C)cc([C@@H]2CC(=O)c3c(O)cc(O)cc3O2)cc1CC=C(C)C ?
## Output 2.29

###

Assay: in vitro
Conditions: dog
Classify: met when CC50 at 72 h is strictly less than 50 µM; not met when CC50 at 72 h is not.

## Input Lab note: confirm whether the reported CC50 at 72 h for this molecule is below 50 µM, equality not counting. molecule: CC(C)=CCC/C(C)=C/Cc1c(O)cc2c(c1O)C(=O)CC(c1ccc(O)c(O)c1)O2 (centres unmarked)
## Output not met

## Input Lab note: confirm whether the reported CC50 at 72 h for this molecule is below 50 µM, equality not counting. molecule: CC(C)=CCc1c(O)cc(CCc2ccccc2)c(CC=C(C)C)c1O
## Output met

## Input Lab note: confirm whether the reported CC50 at 72 h for this molecule is below 50 µM, equality not counting. molecule: CC(C)=CCC/C(C)=C/Cc1c(O)cc(O)c2c1OC(c1ccccc1)CC2=O (racemic) [Compound 24, (R,S)-8-geranyl-5,7-dihydroxyflavanone]
## Output not met

## Input Lab note: confirm whether the reported CC50 at 72 h for this molecule is below 50 µM, equality not counting. molecule: CC(C)=CCc1c(O)c(CC=C(C)C)c2c(c1O)C(=O)CC(c1cc(O)cc(O)c1)O2 (centres unmarked)
## Output met

###

Target: influenza virus A/WSN/33 NA (Influenza A virus)
Sequence (P03470 whole entry, looked up): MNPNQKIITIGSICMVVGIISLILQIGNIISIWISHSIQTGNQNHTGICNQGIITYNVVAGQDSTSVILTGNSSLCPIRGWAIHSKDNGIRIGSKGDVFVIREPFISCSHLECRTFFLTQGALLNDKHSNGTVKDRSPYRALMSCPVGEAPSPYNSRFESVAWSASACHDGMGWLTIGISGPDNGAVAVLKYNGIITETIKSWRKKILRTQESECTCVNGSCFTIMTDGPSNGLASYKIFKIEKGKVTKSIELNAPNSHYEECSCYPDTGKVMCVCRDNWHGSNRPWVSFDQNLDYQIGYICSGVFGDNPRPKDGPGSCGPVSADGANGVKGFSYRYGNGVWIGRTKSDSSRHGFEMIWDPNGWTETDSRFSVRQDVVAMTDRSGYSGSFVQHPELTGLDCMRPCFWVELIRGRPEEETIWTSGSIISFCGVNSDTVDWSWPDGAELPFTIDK
Test: biochemical
Classify: yes when IC50 is strictly less than 60 µM; no when IC50 is not.

## Input Lab note: confirm whether the reported IC50 for this compound is below 60 µM, equality not counting. compound: COc1cc(C2CC(=O)c3c(cc(O)c(CC=C(C)C)c3O)O2)ccc1O (centres unmarked) [Compound 22]
## Output no

## Input Lab note: confirm whether the reported IC50 for this compound is below 60 µM, equality not counting. compound: CC(C)=CCc1c(O)c(CC=C(C)C)c2occ(-c3ccc(O)cc3)c(=O)c2c1O [Compound 30, 6,8-diprenylgenistein]
## Output no

## Input Lab note: confirm whether the reported IC50 for this compound is below 60 µM, equality not counting. compound: O=c1cc(-c2ccc(O)c(O)c2O)oc2cc(O)cc(O)c12 [Compound 14, 2',3',4',5,7-pentahydroxyflavone]
## Output no

## Input Lab note: confirm whether the reported IC50 for this compound is below 60 µM, equality not counting. compound: CC(C)=CCC/C(C)=C/Cc1c(O)ccc([C@@H]2CC(=O)c3c(O)cc(O)cc3O2)c1O [Compound 5, sanggenol A]
## Output no

## Input Lab note: confirm whether the reported IC50 for this compound is below 60 µM, equality not counting. compound: CC1=C[C@H](c2c(O)ccc([C@@H]3CC(=O)c4c(O)cc(O)cc4O3)c2O)[C@@H](C(=O)c2ccc(O)cc2O)[C@H](c2ccc(O)cc2O)C1 [Compound 6, kuwanon L]
## Output yes

## Input Lab note: confirm whether the reported IC50 for this compound is below 60 µM, equality not counting. compound: CC(C)=CCc1c(O)c(CC=C(C)C)c2occ(-c3ccc(O)c(O)c3)c(=O)c2c1O [Compound 31, 6,8-diprenylorobol]
## Output yes

## Input Lab note: confirm whether the reported IC50 for this compound is below 60 µM, equality not counting. compound: CC(C)=CCC12Oc3cc(O)c(C4=CC5(C)CC(C4)c4ccc(O)cc4O5)c(O)c3C(=O)C1(O)Oc1cc(O)ccc12 (centres unmarked) [Compound 1, sanggenon B]
## Output yes

## Input Lab note: confirm whether the reported IC50 for this compound is below 60 µM, equality not counting. compound: CC(C)=CCc1c(O)cc(CCc2ccccc2)c(CC=C(C)C)c1O [Compound 33]
## Output no

## Input Lab note: confirm whether the reported IC50 for this compound is below 60 µM, equality not counting. compound: O=C1CC(c2ccc(O)cc2O)Oc2cc(O)cc(O)c21 (centres unmarked) [Compound 12, 2',4',5,7-tetrahydroxyflavanone]
## Output no

## Input Lab note: confirm whether the reported IC50 for this compound is below 60 µM, equality not counting. compound: COc1ccc(C2CC(=O)c3c(O)cc(O)cc3O2)cc1O (racemic) [Compound 10, (±)-hesperetin]
## Output no

## Input Lab note: confirm whether the reported IC50 for this compound is below 60 µM, equality not counting. compound: O=c1cc(-c2ccc(O)c(O)c2)oc2cc(O)cc(O)c12 [Compound 15, luteolin]
## Output no

## Input Lab note: confirm whether the reported IC50 for this compound is below 60 µM, equality not counting. compound: COc1c(O)cc2c(c1O)C(=O)CC(c1ccccc1)O2 (centres unmarked) [Compound 8]
## Output no

## Input Lab note: confirm whether the reported IC50 for this compound is below 60 µM, equality not counting. compound: CC(C)=CCC/C(C)=C/Cc1c(O)cc(O)c2c1OC(c1ccccc1)CC2=O (racemic) [Compound 24, (R,S)-8-geranyl-5,7-dihydroxyflavanone]
## Output no

## Input Lab note: confirm whether the reported IC50 for this compound is below 60 µM, equality not counting. compound: COc1ccc(C2CC(=O)c3c(cc(O)c(CC=C(C)C)c3O)O2)cc1 (centres unmarked) [Compound 19]
## Output no

###

Assay: in vitro
Settings: human
REPORTED PROPERTY: CC50 at 72 h

## Input I am curious: what CC50 at 72 h value has been reported for CC(C)=CCc1cc(C2CC(=O)c3ccc(O)cc3O2)ccc1O (racemic) [Compound 18, (±)-abyssinone II] ?
## Output > 100 µM

## Input I am curious: what CC50 at 72 h value has been reported for O=C1CC(c2ccc(O)cc2O)Oc2cc(O)cc(O)c21 (stereo not shown) [Compound 12, 2',4',5,7-tetrahydroxyflavanone] ?
## Output > 100 µM

## Input I am curious: what CC50 at 72 h value has been reported for CC(C)=CCC/C(C)=C/Cc1c(O)ccc([C@@H]2CC(=O)c3c(O)cc(O)cc3O2)c1O ?
## Output > 100 µM

## Input I am curious: what CC50 at 72 h value has been reported for COc1cc([C@H]2Oc3cc([C@H]4Oc5cc(O)cc(O)c5C(=O)[C@@H]4O)ccc3O[C@@H]2CO)ccc1O (racemic) [Compound 17, (±)-silybin] ?
## Output > 100 µM

## Input I am curious: what CC50 at 72 h value has been reported for CC(C)=CCc1c(O)c(CC=C(C)C)c2occ(-c3ccc(O)c(O)c3)c(=O)c2c1O ?
## Output 47.1 µM

## Input I am curious: what CC50 at 72 h value has been reported for CC(C)=CCc1c(O)cc(CCc2ccccc2)c(CC=C(C)C)c1O ?
## Output 41.7 µM

## Input I am curious: what CC50 at 72 h value has been reported for CC(C)=CCc1c(O)c(CC=C(C)C)c2c(c1O)C(=O)C[C@@H](c1ccc(O)cc1)O2 ?
## Output 59.1 µM

###

Tested on: human erythrocytes
Settings: human
I'd appreciate it if you could supply sample concentrations provoking induction of erythrocyte lysis in viral HA assay values for the items below.

## Input # value lookup — system human erythrocytes, readout sample concentrations provoking induction of erythrocyte lysis in viral HA assay, item CC(C)=CCc1c(O)c(CC=C(C)C)c2c(c1O)C(=O)CC(c1cc(O)cc(O)c1)O2 (stereo not drawn) [Compound 29]
## Output 100 µM

## Input # value lookup — system human erythrocytes, readout sample concentrations provoking induction of erythrocyte lysis in viral HA assay, item CC(C)=CCC/C(C)=C/Cc1c(O)cc2c(c1O)C(=O)[C@H](O)[C@@H](c1ccc(O)cc1)O2 [Compound 26, bonanniol A]
## Output 31.6 to 100 µM

## Input # value lookup — system human erythrocytes, readout sample concentrations provoking induction of erythrocyte lysis in viral HA assay, item CC(C)=CC[C@]12Oc3cc(O)c([C@H]4C=C(C)C[C@H](c5ccc(O)cc5O)[C@H]4C(=O)c4ccc(O)cc4O)c(O)c3C(=O)[C@@]1(O)Oc1cc(O)ccc12 [Compound 2, sanggenon C]
## Output 10 to 100 µM
